Entries and their measured pKa follow.
- procedure-summary: physchem
- Description: Ionization constant, pKa by spectrophotometry
value-kind: pKa

> print(dat)
                          item.smiles   val
1        CC1(C)CCCCN1Cc1ccc2c(c1)OCO2  10.2
2     c1cc2c(cc1CN1CCC3(CC1)COC3)OCO2   8.3
3  CN(C)CCCC1(c2ccc(C(C)(C)C)cc2)COC1   9.6
4        c1cc2c(cc1CN1CCCC13COC3)OCO2   6.3
5         c1cc2c(cc1CN1CCC13COC3)OCO2   6.2

---

Recorded logP by entry
- procedure-summary: physchem
- test-settings: octanol/water
- Description: Lipophilicity, log P of the compound
value-kind: logP

> print(dat)
                           item.smiles  value.kind   val
 1              c1cc2c(cc1CN1CCC1)OCO2        logP   2.1
 2           O=C1CCCN1Cc1ccc2c(c1)OCO2        logP   1.2
 3         CN(C)CCCCc1ccc(C(C)(C)C)cc1        logP     5
 4          CC1(C)CCN1Cc1ccc2c(c1)OCO2        logP   2.8
 5          O=C1CCCCN1Cc1ccc2c(c1)OCO2        logP   1.6
 6        CC1(C)CCCCN1Cc1ccc2c(c1)OCO2        logP   3.9
 7        c1cc2c(cc1CN1CCCC13COC3)OCO2        logP   1.9
 8             c1cc2c(cc1CN1CCCC1)OCO2        logP   2.5
 9        CN(C)CCCCc1ccc(C2(F)COC2)cc1        logP     2
10            O=C1CCN1Cc1ccc2c(c1)OCO2        logP   1.1
11  CN(C)CCCC1(c2ccc(C(C)(C)C)cc2)COC1        logP   3.9
12     c1cc2c(cc1CN1CCC3(CC1)COC3)OCO2        logP     2
13         O=C1CCN(Cc2ccc3c(c2)OCO3)C1        logP  -0.1
14         CC1(C)CCCN1Cc1ccc2c(c1)OCO2        logP   3.5
15     c1cc2c(cc1CN1CCCC3(COC3)C1)OCO2        logP   2.3
16      CC1(C)CCCN(Cc2ccc3c(c2)OCO3)C1        logP   4.3
17           CN(C)CCCCc1ccc(C2COC2)cc1        logP   2.4
18       c1cc2c(cc1CN1CCCCC13COC3)OCO2        logP   2.4
19      CC1(C)CCN(Cc2ccc3c(c2)OCO3)CC1        logP   4.4
20        O=C1CCCN(Cc2ccc3c(c2)OCO3)C1        logP   0.5
21       c1cc2c(cc1CN1CC3(COC3)C1)OCO2        logP   1.2
22       CC1(C)CCN(Cc2ccc3c(c2)OCO3)C1        logP   3.7
23         c1cc2c(cc1CN1CCC13COC3)OCO2        logP   1.3
24  CN(C)CCC1(Cc2ccc(C(C)(C)C)cc2)COC1        logP   3.5
25        CC1(C)CN(Cc2ccc3c(c2)OCO3)C1        logP   3.1
26               CCc1ccc(CCCCN(C)C)cc1        logP   4.3
27  CN(C)C1(CCCc2ccc(C(C)(C)C)cc2)COC1        logP   3.6
